B1: ZNF263 (parent)
chain: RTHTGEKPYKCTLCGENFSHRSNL

Variants of: B1
Assay: protein stability index of a GFP-peptide fusion (GPS, HEK-293T) (PSI 1-6); higher = more stable;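 further: lentivirally expressed fusions sorted by FACS into six bins by GFP to DsRed ratio, PSI derived from sequencing read proportions per bin multiplied by bin number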
Details: c terminus: a fixed tail appended
Param threshold (2) applies to protein stability index; output True when value >= threshold, False when value < threshold.

> print(dat)
    variant.key  label.class
 1         S19C         True
 2          P8H         True
 3          H3T        False
 4         L24P         True
 5         N17R         True
 6          T4L        False
 7          H3G        False
 8          E6C         True
 9          K7E         True
10         F18D         True
11         K10Y        False
12         F18S         True
13         L13C         True
14          T4K         True
15         C11F         True
16         C11D         True
17          E6A         True
18         C11N         True
19         S19A         True
20          P8T        False
21         K10R        False
22          P8K         True
23          Y9I        False
24         T12W         True
25         H20P        False
26         F18H         True
27          Y9K         True
